Readings of inhibition at 1 µM for the listed compounds
Target: panel of 255 wild-type kinases (Homo sapiens, UniProt O60285)
Sequence (O60285 1-661): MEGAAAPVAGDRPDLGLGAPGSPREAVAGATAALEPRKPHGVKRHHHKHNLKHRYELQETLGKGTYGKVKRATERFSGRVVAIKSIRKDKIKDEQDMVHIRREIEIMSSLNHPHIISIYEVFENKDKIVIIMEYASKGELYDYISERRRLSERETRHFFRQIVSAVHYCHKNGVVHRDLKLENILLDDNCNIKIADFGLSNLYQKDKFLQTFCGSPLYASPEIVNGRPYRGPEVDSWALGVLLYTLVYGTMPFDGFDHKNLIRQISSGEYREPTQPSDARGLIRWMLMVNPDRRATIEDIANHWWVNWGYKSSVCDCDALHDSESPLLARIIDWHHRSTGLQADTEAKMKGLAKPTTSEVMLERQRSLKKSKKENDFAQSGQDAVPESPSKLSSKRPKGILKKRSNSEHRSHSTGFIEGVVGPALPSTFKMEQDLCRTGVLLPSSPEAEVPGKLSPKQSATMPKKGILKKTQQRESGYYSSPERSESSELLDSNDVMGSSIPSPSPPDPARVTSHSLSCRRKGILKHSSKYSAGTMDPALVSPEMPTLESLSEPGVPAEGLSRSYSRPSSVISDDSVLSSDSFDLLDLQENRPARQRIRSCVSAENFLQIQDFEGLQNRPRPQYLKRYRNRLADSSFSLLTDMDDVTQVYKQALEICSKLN
Experiment: Kinase panel profiling at 1 µmol/L (MSA or IMAP), percentage inhibition
Format: biochemical
Details: NuaK1; 1 µmol/L single concentration; read-out: %-inhibition, NuaK1
Report the figure in % without appending any unit label.

Consider the worked cases shown below.
Cn1cnc2c(F)c(Nc3ccc(Br)cc3Cl)c(C(=O)NOCCO)cc21    6
CN1CCN(c2ccc(C(=O)Nc3n[nH]c4ccc(Cc5cc(F)cc(F)c5)cc34)c(NC3CCOCC3)c2)CC1    102
C[C@H](Nc1ncnc2nc[nH]c12)c1cc2cccc(Cl)c2c(=O)n1-c1ccccc1    0.44
CCN1C(=O)N(c2c(F)c(OC)cc(OC)c2F)Cc2cnc3[nH]c(CN4CCOCC4)cc3c21    -2.15

Q: Which value of inhibition at 1 µM has been reported for `CCc1nc(C(N)=O)c(Nc2ccc(N3CCC(N4CCN(C)CC4)CC3)c(OC)c2)nc1NC1CCOCC1` in the records?
Ans: 98

Q: Which value of inhibition at 1 µM has been reported for `Cn1cc(-c2cc3c(N4CCN(c5ncc([C@@](C)(N)c6ccc(F)cc6)cn5)CC4)ncnn3c2)cn1` in the records?
Ans: 85
